targetDesc: BRM (Homo sapiens)
Construct: In-Cell Western Screen of BRM Degradation in SW1573 Cells; endogenous in cells; host or cells: SW1573
Sequence (P51531 whole entry): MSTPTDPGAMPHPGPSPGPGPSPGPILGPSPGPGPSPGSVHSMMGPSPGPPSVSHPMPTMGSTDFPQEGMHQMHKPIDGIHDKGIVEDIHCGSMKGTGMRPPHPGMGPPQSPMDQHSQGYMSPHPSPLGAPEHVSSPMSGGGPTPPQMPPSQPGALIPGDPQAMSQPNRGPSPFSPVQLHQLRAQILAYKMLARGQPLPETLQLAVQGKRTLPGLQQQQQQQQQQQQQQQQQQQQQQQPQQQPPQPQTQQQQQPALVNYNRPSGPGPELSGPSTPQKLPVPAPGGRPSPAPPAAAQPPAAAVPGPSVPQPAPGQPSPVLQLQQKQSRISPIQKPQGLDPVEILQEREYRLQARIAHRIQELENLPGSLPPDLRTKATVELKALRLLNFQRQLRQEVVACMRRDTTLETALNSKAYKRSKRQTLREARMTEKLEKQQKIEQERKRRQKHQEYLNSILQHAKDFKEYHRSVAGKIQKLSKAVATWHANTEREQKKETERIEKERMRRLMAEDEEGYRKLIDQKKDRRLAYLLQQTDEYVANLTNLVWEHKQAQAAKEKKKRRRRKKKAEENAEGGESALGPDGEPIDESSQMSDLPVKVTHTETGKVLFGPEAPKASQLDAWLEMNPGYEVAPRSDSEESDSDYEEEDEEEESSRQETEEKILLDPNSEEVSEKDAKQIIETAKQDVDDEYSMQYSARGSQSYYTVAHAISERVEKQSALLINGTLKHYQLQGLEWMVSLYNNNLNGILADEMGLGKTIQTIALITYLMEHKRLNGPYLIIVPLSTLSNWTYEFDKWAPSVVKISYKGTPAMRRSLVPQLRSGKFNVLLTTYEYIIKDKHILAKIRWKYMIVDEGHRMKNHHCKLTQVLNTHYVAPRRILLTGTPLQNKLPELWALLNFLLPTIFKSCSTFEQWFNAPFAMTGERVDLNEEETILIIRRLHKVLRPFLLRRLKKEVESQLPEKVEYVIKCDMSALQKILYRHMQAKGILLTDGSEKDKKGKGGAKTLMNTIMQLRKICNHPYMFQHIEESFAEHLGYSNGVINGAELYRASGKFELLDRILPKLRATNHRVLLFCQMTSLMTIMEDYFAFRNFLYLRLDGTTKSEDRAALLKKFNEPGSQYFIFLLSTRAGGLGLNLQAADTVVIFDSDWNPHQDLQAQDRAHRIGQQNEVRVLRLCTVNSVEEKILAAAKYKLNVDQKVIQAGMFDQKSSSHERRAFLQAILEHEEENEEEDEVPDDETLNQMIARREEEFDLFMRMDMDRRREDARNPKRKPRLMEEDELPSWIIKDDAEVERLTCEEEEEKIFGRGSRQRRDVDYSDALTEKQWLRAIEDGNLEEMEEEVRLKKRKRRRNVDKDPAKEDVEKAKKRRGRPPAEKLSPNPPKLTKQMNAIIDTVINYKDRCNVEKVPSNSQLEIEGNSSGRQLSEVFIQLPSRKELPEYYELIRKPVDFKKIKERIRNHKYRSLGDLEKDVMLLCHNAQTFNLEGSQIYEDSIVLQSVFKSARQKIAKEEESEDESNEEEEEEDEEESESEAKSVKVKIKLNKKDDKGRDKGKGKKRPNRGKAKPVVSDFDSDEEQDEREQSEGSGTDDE
measurementDescription: In-cell Western screen of BRM degradation in SW1573 cells (Dmax and DC50)
Format: cell-based
measurementContext: BRM degradation, SW1573 cells; read-out: DC50

>  <compound>
Cc1ncsc1-c1ccc(CNC(=O)[C@@H]2C[C@@H](O)CN2C(=O)[C@@H](NC(=O)COCCOCCOCCOCCOCCOc2cc(N3[C@@H]4CC[C@H]3CN(c3cc(-c5ccccc5O)nnc3N)C4)ccn2)C(C)(C)C)cc1

>  <targetDesc>
BRM (Homo sapiens)

>  <DC50>
2.5 to 10 nM

$$$$
>  <compound>
Cc1ncsc1-c1ccc([C@H](C)NC(=O)[C@@H]2C[C@@H](O)CN2C(=O)[C@@H](c2cc(OCCN3CCN(CCOc4cc(N5C6CCC5CN(c5cc(-c7ccccc7O)nnc5N)C6)ccn4)CC3)no2)C(C)C)cn1

>  <targetDesc>
BRM (Homo sapiens)

>  <DC50>
< 2.5 nM

$$$$
>  <compound>
CC[C@H](NC(=O)[C@@H]1C[C@@H](O)CN1C(=O)C(c1cc(OCCN2CCC(O[C@H]3C[C@H](Oc4cc(N5C6CCC5CN(c5cc(-c7ccccc7O)nnc5N)C6)ccn4)C3)CC2)no1)C(C)C)c1ccc(-c2scnc2C)cc1 (stereo partly drawn)

>  <targetDesc>
BRM (Homo sapiens)

>  <DC50>
< 2.5 nM

$$$$
